Test system: HeLa
protocol: Cytotoxicity against human HeLa cells assessed as cell growth inhibition measured after 24 hrs by Celltiter Glo luminescent assay
Type: cell-based
experimentalSetup: hela, 24 h
The class of a record is decided solely by its measured GI50; consult low bin = under 7 mg/L, mid bin = from 7 mg/L up to 20 mg/L, high bin = 20 mg/L and over

For `Clc1cc(Cl)c2nc(N3CCc4c([nH]c5ccc(Cl)cc45)C3)sc2c1` , which GI50 bin applies? mid bin

For `Clc1ccc2[nH]c3c(c2c1)CCN(c1nc2c(Cl)cc(Br)cc2s1)C3` , which GI50 bin applies? high bin

For OCC1CN(c2nc3ccc(Cl)cc3s2)Cc2[nH]c3ccc(Cl)cc3c21 (racemic) , which GI50 bin applies? mid bin

For COC(=O)C1CN(c2nc3ccc(Cl)cc3s2)Cc2[nH]c3ccc(Cl)cc3c21 (racemic) , which GI50 bin applies? low bin

For `Clc1ccc2nc(N3CCc4c([nH]c5ccc(Cl)cc45)C3)sc2c1` , which GI50 bin applies? mid bin

For `Oc1cc(Cl)c2nc(N3CCc4c([nH]c5ccc(Cl)cc45)C3)sc2c1` , which GI50 bin applies? low bin

For `Clc1ccc2[nH]c3c(c2c1)CCN(c1nc2c(Cl)cccc2s1)C3` , which GI50 bin applies? high bin

For C[N+](C)(C)CC1CN(c2nc3ccc(Cl)cc3s2)Cc2[nH]c3ccc(Cl)cc3c21.[I-] (racemic) , which GI50 bin applies? mid bin

----------
System: HeLa
protocol: Cytotoxicity against human HeLa cells assessed as cell growth inhibition measured after 24 hrs by Celltiter Glo luminescent assay
Assay type: cell-based
experimentalSetup: hela, 24 h
testReadout: GI50 (µg/mL)
# output: bare number, implied unit µg/mL

// below: answered compounds
{"columns": ["compound", "GI50, µg/mL"],
 "data": [
  ["N=CNCC1CN(c2nc3ccc(Cl)cc3s2)Cc2[nH]c3ccc(Cl)cc3c21 (racemic)", 3.8],
  ["CNc1cc(C(F)(F)F)c2nc(N3CCc4c([nH]c5ccc(Cl)cc45)C3)sc2c1", 15.4],
  ["FC(F)(F)c1cccc2sc(N3CCc4c([nH]c5ccc(Cl)cc45)C3)nc12", 8],
  ["Clc1ccc2[nH]c3c(c2c1)CCN(c1nc2cccc(Cl)c2s1)C3", 6.7]
]}

What does the record list as GI50 for `Cl.NCCNc1cc(C(F)(F)F)c2nc(N3CCc4c([nH]c5ccc(Cl)cc45)C3)sc2c1` ? 7.4

What does the record list as GI50 for NCC1CN(c2nc3ccc(Cl)cc3s2)Cc2[nH]c3ccc(Cl)cc3c21 (racemic) ? 1.5

What does the record list as GI50 for CN(C)CC1CN(c2nc3ccc(Cl)cc3s2)Cc2[nH]c3ccc(Cl)cc3c21 (racemic) ? 5.2

What does the record list as GI50 for `FC(F)(F)Oc1ccc2nc(N3CCc4c([nH]c5ccc(Cl)cc45)C3)sc2c1` ? 7.3

----------
Test system: Staphylococcus aureus
protocol: Potentiation of cefazolin induced antibacterial activity against methicillin resistant Staphylococcus aureus ATCC BAA-44 assessed as minimum resensitizing concentration after 18 hrs by broth microdilution method
Format: functional
experimentalSetup: ATCC BAA-44, 18 h, read-out: MEC
// values below are reported minimal effective concentration

Could you share what minimal effective concentration was measured for CCOC(=O)C1c2[nH]c3ccc(Cl)cc3c2CCN1c1nc2ccc(Cl)cc2s1 (centres undefined) , tested on Staphylococcus aureus? > 64 µg/mL

Could you share what minimal effective concentration was measured for `Clc1ccc2nc(N3CCc4c([nH]c5cccc(Cl)c45)C3)sc2c1` , tested on Staphylococcus aureus? 16 µg/mL

----------
Tested on: Staphylococcus aureus
protocol: Potentiation of cefazolin induced antibacterial activity against methicillin resistant Staphylococcus aureus ATCC BAA-44 assessed as minimum resensitizing concentration after 18 hrs by broth microdilution method
Assay type: functional
experimentalSetup: ATCC BAA-44, 18 h, read-out: MEC
// values below are reported minimal effective concentration

// below: answered molecules
{"columns": ["molecule", "endpointValue"],
 "data": [
  ["FC(F)(F)c1ccc(NC(=S)N2CCc3c([nH]c4ccc(Cl)cc34)C2)cc1", "1 µg/mL"],
  ["CN(C)C(=O)C1CN(c2nc3ccc(Cl)cc3s2)Cc2[nH]c3ccc(Cl)cc3c21 (racemic)", "> 32 µg/mL"]
]}

What does the record list as minimal effective concentration for `Cn1c(N2CCc3c([nH]c4ccc(Cl)cc34)C2)nc2ccc(C(F)(F)F)cc21` ? > 64 µg/mL

What does the record list as minimal effective concentration for `Oc1cc(Cl)c2nc(N3CCc4c([nH]c5ccc(Cl)cc45)C3)sc2c1` ? 8 µg/mL

What does the record list as minimal effective concentration for `Nc1ccc2nc(N3CCc4c([nH]c5ccc(Cl)cc45)C3)sc2c1` ? > 64 µg/mL

What does the record list as minimal effective concentration for `CCOC(=O)c1ccc2nc(N3CCc4c([nH]c5ccc(Cl)cc45)C3)sc2c1` ? > 64 µg/mL

What does the record list as minimal effective concentration for `Clc1ccc2[nH]c3c(c2c1)CCN(c1nc2ccccc2s1)C3` ? > 64 µg/mL
